Target: CDK12 (nuclear staining in CAL-120 cells) (Homo sapiens, UniProt Q9NYV4)
Construct: endogenous in cells; host or cells: CAL-120 human breast cancer cells (DSMZ ACC 459)
Sequence (Q9NYV4 whole entry): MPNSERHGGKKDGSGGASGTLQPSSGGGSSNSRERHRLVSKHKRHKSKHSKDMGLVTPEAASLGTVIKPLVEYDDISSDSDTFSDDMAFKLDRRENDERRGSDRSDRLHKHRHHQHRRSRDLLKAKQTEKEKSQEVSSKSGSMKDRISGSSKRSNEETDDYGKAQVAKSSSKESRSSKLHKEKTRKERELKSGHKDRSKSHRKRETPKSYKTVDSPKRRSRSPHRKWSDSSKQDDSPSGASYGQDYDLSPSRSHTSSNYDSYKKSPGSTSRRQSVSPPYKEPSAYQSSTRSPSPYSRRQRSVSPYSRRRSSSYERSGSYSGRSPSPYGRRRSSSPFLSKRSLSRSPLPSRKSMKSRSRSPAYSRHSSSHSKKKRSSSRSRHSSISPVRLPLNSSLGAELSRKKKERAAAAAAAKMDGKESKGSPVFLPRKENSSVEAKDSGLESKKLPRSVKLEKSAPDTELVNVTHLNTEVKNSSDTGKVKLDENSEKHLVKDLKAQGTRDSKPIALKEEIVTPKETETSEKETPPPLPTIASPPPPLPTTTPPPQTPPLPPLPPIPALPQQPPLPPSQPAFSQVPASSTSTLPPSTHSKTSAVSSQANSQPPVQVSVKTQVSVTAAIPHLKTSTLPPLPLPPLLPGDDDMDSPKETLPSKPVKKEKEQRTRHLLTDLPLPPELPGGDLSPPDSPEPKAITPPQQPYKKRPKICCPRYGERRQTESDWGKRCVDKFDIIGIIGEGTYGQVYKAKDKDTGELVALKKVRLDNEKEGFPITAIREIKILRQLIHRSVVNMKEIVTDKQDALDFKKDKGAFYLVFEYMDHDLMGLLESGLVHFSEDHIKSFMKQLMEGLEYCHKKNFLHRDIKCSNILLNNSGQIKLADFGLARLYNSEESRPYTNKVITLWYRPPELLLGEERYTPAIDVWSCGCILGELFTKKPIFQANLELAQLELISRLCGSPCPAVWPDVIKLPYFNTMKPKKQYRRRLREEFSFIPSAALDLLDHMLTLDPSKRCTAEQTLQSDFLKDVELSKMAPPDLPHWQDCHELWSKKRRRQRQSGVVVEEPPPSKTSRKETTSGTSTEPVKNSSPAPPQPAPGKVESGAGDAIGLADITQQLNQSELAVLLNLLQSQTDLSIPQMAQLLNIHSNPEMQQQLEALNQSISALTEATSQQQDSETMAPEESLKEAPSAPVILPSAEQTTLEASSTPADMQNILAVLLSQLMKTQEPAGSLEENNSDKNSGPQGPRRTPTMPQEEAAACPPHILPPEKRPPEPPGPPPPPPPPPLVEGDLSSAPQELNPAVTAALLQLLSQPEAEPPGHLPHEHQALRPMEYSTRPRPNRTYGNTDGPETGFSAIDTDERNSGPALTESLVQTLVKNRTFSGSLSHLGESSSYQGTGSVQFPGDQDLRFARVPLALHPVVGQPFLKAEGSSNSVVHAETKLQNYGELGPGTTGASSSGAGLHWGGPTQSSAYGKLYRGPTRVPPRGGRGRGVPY
Sequence (O75909 whole entry partner): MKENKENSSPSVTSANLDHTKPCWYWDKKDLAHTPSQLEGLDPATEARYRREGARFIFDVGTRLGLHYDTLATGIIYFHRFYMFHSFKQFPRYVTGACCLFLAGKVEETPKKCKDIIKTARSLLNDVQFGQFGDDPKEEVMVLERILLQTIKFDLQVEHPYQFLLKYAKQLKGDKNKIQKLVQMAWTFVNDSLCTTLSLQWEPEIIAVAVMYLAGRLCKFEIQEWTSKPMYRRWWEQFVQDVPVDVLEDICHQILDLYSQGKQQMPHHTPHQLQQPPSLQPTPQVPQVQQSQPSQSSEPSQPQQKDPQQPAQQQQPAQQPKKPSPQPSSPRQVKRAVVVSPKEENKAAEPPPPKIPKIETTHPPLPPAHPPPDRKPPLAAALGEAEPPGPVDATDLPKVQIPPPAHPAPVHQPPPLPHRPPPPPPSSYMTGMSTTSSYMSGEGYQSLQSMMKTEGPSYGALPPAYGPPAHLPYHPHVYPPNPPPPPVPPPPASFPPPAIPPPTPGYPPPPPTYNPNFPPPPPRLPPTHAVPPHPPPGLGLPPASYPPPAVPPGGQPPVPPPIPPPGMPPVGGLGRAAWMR
Experiment: CDK12 nuclear protein level: immunofluorescence/high content analysis (CAL-120)
Assay type: cell-based
Details: ratio of IC50 CDK12 high ATP kinase assay to DC50 CDK12 degradation (IF, CAL-120)
MEASUREMENT_NAME: (IC50 CDK12 high ATP) to (Degradation DC50 CDK12) ratio
Provide a numeric answer; units are not to be included.

# count of solved cases: 3
Sample N[C@@H]1CN(c2nc(NCc3nc4ccccc4[nH]3)n3ncc(Br)c3n2)CC12CC2 ; (IC50 CDK12 high ATP) to (Degradation DC50 CDK12) ratio observed: 6727

For record FC(F)(F)c1ccc2[nH]c(CNc3nc(N4CC5CCC(C4)N5)nc4c(Br)cnn34)nc2c1 the listed (IC50 CDK12 high ATP) to (Degradation DC50 CDK12) ratio is 52

Note to self: (IC50 CDK12 high ATP) to (Degradation DC50 CDK12) ratio recorded for Brc1cnn2c(NCc3nc4ccccc4[nH]3)nc(N3CCOCC3C3CC3)nc12 (centres unmarked) was 1278

Would you kindly look at the next entry?
Sample FC(F)Cc1cnn2c(NCc3nc4ccccc4[nH]3)nc(N3CCOCC3)nc12.O=C(O)C(F)(F)F ; (IC50 CDK12 high ATP) to (Degradation DC50 CDK12) ratio observed: 1080
